biological target: Androgen receptor/Baculoviral IAP repeat-containing protein 2 (Homo sapiens, UniProt P10275+Q13490); experiment: Induction of AR/cIAP1 interaction in human 22Rv1 cells assessed as ubiquitin proteasome system mediated androgen receptor protein degradation at 1 to 3 uM after 6 hrs by Western blot analysis; assay type: cell-based
Sequence (P10275 whole entry, looked up): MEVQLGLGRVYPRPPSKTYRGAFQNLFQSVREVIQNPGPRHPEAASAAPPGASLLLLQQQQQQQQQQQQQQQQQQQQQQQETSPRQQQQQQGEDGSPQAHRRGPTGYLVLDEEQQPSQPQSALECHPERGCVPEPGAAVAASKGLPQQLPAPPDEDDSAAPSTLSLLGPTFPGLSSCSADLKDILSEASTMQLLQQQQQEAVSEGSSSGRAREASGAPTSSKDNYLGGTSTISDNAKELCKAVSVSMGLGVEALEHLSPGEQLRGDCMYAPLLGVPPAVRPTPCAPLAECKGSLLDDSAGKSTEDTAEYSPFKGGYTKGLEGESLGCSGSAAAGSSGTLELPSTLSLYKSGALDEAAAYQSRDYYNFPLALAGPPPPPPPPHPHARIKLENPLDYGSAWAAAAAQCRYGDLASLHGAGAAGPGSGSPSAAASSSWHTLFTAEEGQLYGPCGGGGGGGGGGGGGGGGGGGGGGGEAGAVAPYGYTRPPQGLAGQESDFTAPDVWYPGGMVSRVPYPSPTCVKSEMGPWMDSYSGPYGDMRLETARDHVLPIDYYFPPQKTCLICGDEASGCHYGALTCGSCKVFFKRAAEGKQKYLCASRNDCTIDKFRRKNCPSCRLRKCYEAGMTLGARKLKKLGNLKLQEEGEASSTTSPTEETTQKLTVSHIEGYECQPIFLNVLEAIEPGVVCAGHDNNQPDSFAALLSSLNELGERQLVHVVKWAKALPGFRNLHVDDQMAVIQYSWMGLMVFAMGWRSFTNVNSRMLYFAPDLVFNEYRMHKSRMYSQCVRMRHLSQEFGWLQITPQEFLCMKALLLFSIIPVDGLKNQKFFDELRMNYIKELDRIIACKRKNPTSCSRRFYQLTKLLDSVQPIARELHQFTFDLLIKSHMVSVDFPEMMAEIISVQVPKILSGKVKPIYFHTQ
Sequence (Q13490 whole entry, looked up): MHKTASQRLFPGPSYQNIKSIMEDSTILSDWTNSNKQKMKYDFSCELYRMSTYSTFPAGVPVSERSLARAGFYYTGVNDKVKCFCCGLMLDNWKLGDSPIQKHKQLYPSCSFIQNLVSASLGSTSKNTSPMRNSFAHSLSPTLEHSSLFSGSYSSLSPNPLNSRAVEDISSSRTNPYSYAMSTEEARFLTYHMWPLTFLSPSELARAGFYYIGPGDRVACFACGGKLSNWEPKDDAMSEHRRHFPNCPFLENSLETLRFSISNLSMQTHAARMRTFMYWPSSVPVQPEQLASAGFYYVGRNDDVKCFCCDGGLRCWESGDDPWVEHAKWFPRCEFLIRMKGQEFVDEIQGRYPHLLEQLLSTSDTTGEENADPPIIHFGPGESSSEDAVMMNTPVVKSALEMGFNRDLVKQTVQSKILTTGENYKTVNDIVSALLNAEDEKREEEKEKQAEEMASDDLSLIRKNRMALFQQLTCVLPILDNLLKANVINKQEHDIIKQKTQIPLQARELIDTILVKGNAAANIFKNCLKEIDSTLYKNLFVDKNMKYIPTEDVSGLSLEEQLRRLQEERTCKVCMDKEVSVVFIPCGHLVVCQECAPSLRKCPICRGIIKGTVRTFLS
Calls of active or inactive are those of the source. The calls are words filed in the database; no cut-off is given here.
Entry note: the call must match one of active, inactive

Known results for compounds:
query smiles	discrete label
CN[C@@H](C)C(=O)N[C@H](C(=O)N1CCC[C@H]1c1nc(C(=O)c2cccc(OCCOCCOCCNC(=O)c3ccc(Cn4c(C)c(C#N)c(-c5ccc(C#N)cc5)c4C)cc3)c2)cs1)C1CCCCC1	active
CN[C@@H](C)C(=O)N[C@H](C(=O)N1CCC[C@H]1c1nc(C(=O)c2cccc(OCCOCCOCCOCCCc3ccc(Cn4c(C)c(C#N)c(-c5ccc(C#N)cc5)c4C)cc3)c2)cs1)C1CCCCC1	active
CN[C@@H](C)C(=O)N[C@H](C(=O)N1CCC[C@H]1c1nc(C(=O)c2cccc(OCCOCCOCCOCC#Cc3ccc(Cn4c(C)c(C#N)c(-c5ccc(C#N)cc5)c4C)cc3)c2)cs1)C1CCCCC1	active

Please indicate how the test categorized CN[C@@H](C)C(=O)N[C@H](C(=O)N1CCC[C@H]1c1nc(C(=O)c2cccc(OCCOc3ccccc3OCCOc3ccc(Cn4c(C)c(C#N)c(-c5ccc(C#N)cc5)c4C)cc3)c2)cs1)C1CCCCC1 . inactive

Okay, and CN[C@@H](C)C(=O)N[C@H](C(=O)N1CCC[C@H]1c1nc(C(=O)c2cccc(OCCOCCOCCOCCOc3cccc(Cn4c(C)c(C#N)c(-c5ccc(C#N)cc5)c4C)c3)c2)cs1)C1CCCCC1 ? active
